Molecular target: BRD2-BD1 (Homo sapiens (Human), UniProt P25440)
Sequence (P25440 74-180): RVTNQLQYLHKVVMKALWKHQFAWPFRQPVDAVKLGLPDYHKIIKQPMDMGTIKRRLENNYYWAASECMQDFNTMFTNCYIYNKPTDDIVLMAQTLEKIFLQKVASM
Assay: competitive TR-FRET assay, BET-BD with acetylated peptide ligand
Assay type: binding
Details: BRD2-BD1; Table 11 additional modifications; read-out: 2.1 EC50
Experimental: Inhibitor potency was determined using a competitive TR-FRET assay as detailed herein, measuring interaction of the respective BET-BD with an acetylated peptide ligand (Table 2).
reported_property: pEC50
Scale explanation: pEC50 corresponds to minus log10 of a concentration expressed in moles per litre.

1. CC(=O)Nc1cccc(-c2ccc3c(c2)[C@H](Nc2ccc(C(=O)CO)cc2)C[C@H](C)N3C(C)=O)c1 | 5.54

Note to self: pEC50 of `COc1cc(F)ccc1N[C@@H]1C[C@H](C)N(C(C)=O)c2ccc(-c3ccn(C)n3)cc21` with BRD2-BD1 (Homo sapiens (Human), UniProt P25440) was 5.85

Note to self: pEC50 of `CC(=O)Nc1cccc(-c2ccc3c(c2)[C@H](Nc2ccc(S(=O)(=O)N(C)C)cc2)C[C@H](C)N3C(C)=O)c1` with BRD2-BD1 (Homo sapiens (Human), UniProt P25440) was 5.57

Note to self: pEC50 of `CC(=O)Nc1cccc(-c2ccc3c(c2)[C@H](Nc2cccc(Cl)c2)C[C@H](C)N3C(C)=O)c1` with BRD2-BD1 (Homo sapiens (Human), UniProt P25440) was 5.48
